- assay.target: full-length beta-Catenin (Uniprot ID P35222) (Homo sapiens)
- Construct: 10 nM full-length beta-Catenin (Uniprot ID P35222)
- Sequence (P35222 whole entry): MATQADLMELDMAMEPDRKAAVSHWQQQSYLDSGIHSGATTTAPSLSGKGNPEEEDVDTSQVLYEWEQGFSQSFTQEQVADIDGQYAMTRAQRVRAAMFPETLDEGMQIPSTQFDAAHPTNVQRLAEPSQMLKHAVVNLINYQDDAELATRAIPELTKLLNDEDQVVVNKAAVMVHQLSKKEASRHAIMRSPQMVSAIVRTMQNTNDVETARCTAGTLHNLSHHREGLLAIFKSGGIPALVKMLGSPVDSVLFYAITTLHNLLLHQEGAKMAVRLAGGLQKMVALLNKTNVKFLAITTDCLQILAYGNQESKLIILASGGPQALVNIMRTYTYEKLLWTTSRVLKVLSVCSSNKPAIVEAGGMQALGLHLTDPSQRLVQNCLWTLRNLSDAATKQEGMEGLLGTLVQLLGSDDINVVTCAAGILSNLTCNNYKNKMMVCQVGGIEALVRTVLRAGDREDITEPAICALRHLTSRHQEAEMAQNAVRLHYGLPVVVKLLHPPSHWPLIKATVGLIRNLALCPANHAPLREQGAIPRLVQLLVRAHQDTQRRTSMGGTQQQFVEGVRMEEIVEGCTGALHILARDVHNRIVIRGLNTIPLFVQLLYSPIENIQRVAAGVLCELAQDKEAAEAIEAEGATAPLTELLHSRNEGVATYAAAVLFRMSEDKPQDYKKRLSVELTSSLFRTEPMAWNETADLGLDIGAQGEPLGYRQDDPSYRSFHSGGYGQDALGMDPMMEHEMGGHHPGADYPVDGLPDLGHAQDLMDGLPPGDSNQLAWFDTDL
- assay: Fluorescence polarization IC50 (beta-catenin / 5FAM-TCF4 10-53 competition)
- Type: binding
- experimental.context: fluorescence polarization; read-out: beta-Catenin FP IC50
# note: exactly 30 nM is not below, so it is no; use yes for IC50 strictly under it

[[record]]
compound = "CC(=O)N1CCC[C@]12CC=CCCCC1(CCCC=CCCCOC(=O)N3CC[C@@](C(=O)N[C@@H](Cc4ccsc4)C(=O)N[C@@H](Cc4csc5ccccc45)C(=O)N[C@@H](CCC(N)=O)C(N)=O)(C3)NC(=O)[C@H](CC(C)C)NC(=O)[C@H](Cn3cc(CN(C)C)nn3)NC(=O)[C@H](C)NC(=O)[C@H](C)NC(=O)[C@H](CN(CC(=O)O)CC(F)(F)F)NC(=O)[C@H](CC(=O)O)NC1=O)NC(=O)[C@H](CC(C)(C)C)NC(=O)[C@H](CC(=O)O)NC2=O (some centres unmarked)"
label = "no"

[[record]]
compound = "CC(=O)N1CCC[C@]12CC=CCCCC1(CCCC=CCCCOC(=O)N3CC[C@@](C(=O)N[C@@H](Cc4ccsc4)C(=O)N[C@@H](Cc4csc5ccccc45)C(=O)N[C@@H](CCC(N)=O)C(N)=O)(C3)NC(=O)[C@H](CC(C)C)NC(=O)[C@H](Cc3ccccc3)NC(=O)[C@H](C)NC(=O)[C@H](C)NC(=O)[C@H](CC(=O)O)NC(=O)[C@H](CC(=O)O)NC1=O)NC(=O)[C@H](CCCCNC(=O)CC[C@@H](C)[C@H]1CC[C@H]3[C@@H]4CC[C@@H]5C[C@H](O)CC[C@]5(C)[C@H]4CC[C@]13C)NC(=O)[C@H](CC(=O)O)NC2=O (some centres unmarked)"
label = "no"

[[record]]
compound = "CC(=O)N1CCC[C@]12CC=CCCCC1(CCCC=CCCCOC(=O)N3CC[C@@](C(=O)N[C@@H](Cc4ccccc4C(F)(F)F)C(=O)N[C@@H](Cc4csc5ccccc45)C(=O)N[C@@H](CCC(N)=O)C(=O)N[C@@H](CC(C)C)C(=O)N[C@@H](CC(N)=O)C(N)=O)(C3)NC(=O)[C@H](CC(C)C)NC(=O)[C@H](Cc3ccccc3)NC(=O)[C@H](C)NC(=O)[C@H](C)NC(=O)[C@H](Cc3cccc(C(=O)O)c3)NC(=O)[C@H](CC(=O)O)NC1=O)NC(=O)[C@H](CC(C)(C)C)NC(=O)[C@H](CC(=O)O)NC2=O (some centres unmarked)"
label = "yes"

[[record]]
compound = "CC(=O)N1CCC[C@]12CC=CCCCC1(CCCC=CCCCOC(=O)N3CC[C@@](C(=O)N[C@@H](Cc4ccccc4Cl)C(=O)N[C@@H](Cc4csc5ccccc45)C(=O)N[C@@H](CC(C)C)C(N)=O)(C3)NC(=O)[C@H](CCCCNC(C)C)NC(=O)[C@H](Cc3ccccc3)NC(=O)[C@H](C)NC(=O)[C@H](C)NC(=O)[C@H](CCC(=O)O)NC(=O)[C@H](CC(=O)O)NC1=O)NC(=O)[C@H](CC(C)(C)C)NC(=O)[C@H](CC(=O)O)NC2=O (some centres unmarked)"
label = "yes"

[[record]]
compound = "CC(=O)N1CCC[C@]12CC=CCCCC1(CCCC=CCCCOC(=O)N3CC[C@@](C(=O)N[C@@H](Cc4ccccc4Cl)C(=O)N[C@@H](Cc4csc5ccccc45)C(=O)N[C@@H](CCC(N)=O)C(=O)N[C@H](CO)[C@@H](C)O)(C3)NC(=O)[C@H](CC(C)C)NC(=O)[C@H](Cc3ccccc3)NC(=O)[C@H](C)NC(=O)[C@H](C)NC(=O)[C@H](Cc3cccc(C(=O)O)c3)NC(=O)[C@H](CC(=O)O)NC1=O)NC(=O)[C@H](CC(C)(C)C)NC(=O)[C@H](CC(=O)O)NC2=O (some centres unmarked)"
label = "yes"


* * *

Readings of IC50 for the listed molecules
- assay.target: beta-catenin/TCF4 engagement (Homo sapiens, UniProt P35222)
- Construct: expressed in transfected cells; host or cells: HEK293
- Sequence (P35222 whole entry): as above
- assay: Nano-BRET target engagement assay (B-cat-Halo & TCF4-Luc in HEK293 cells)
- Format: cell-based
- experimental.context: absolute IC50; read-out: NanoBRET Abs IC50
experimental.endpoint: IC50 (µM)

[[record]]
molecule = "CC(=O)N1CCC[C@]12CC=CCCCC1(CCCC=CCCCOC(=O)N3CC[C@@](C(=O)N[C@@H](Cc4ccsc4)C(=O)N[C@@H](Cc4csc5ccccc45)C(=O)N[C@@H](CCC(N)=O)C(N)=O)(C3)NC(=O)[C@H](CC(C)C)NC(=O)[C@H](Cc3ccccc3)NC(=O)[C@H](C)NC(=O)[C@H](C)NC(=O)[C@H](CCCC(=O)O)NC(=O)[C@H](CC(=O)O)NC1=O)NC(=O)[C@H](CC(C)(C)C)NC(=O)[C@H](CC(=O)O)NC2=O (stereo partly drawn) [I-1438]"
assay_target = "beta-catenin/TCF4 engagement (Homo sapiens, UniProt P35222)"
measurement = 7.4

[[record]]
molecule = "CC(=O)N1CCC[C@]12CC=CCCCC1(CCCC=CCCCOC(=O)N3CC[C@@](C(=O)N[C@@H](Cc4ccsc4)C(=O)N[C@@H](Cc4csc5ccccc45)C(=O)N[C@@H](CCC(N)=O)C(N)=O)(C3)NC(=O)[C@H](CCCN3CCOCC3)NC(=O)[C@H](Cc3ccccc3)NC(=O)[C@H](C)NC(=O)[C@H](C)NC(=O)[C@H](CC(=O)O)NC(=O)[C@H](CC(=O)O)NC1=O)NC(=O)[C@H](CC(C)(C)C)NC(=O)[C@H](CC(=O)O)NC2=O (stereo partly drawn) [I-1485]"
assay_target = "beta-catenin/TCF4 engagement (Homo sapiens, UniProt P35222)"
measurement = 25.8

[[record]]
molecule = "CCCC[C@@H]1NC(=O)[C@H](CC(=O)O)NC(=O)[C@]2(CC=CCCCC3(CCCC=CCCCOC(=O)N4CC[C@@](C(=O)N[C@@H](Cc5ccsc5)C(=O)N[C@@H](Cc5csc6ccccc56)C(=O)N[C@@H](CCC(N)=O)C(N)=O)(C4)NC(=O)[C@H](CCCC)NC(=O)[C@H](Cc4ccccc4)NC(=O)[C@H](C)NC(=O)[C@H](C)NC(=O)[C@H](Cc4cccc(C(=O)O)c4)NC(=O)[C@H](CC(=O)O)NC3=O)NC1=O)CCCN2C(C)=O (stereo partly drawn) [I-1408]"
assay_target = "beta-catenin/TCF4 engagement (Homo sapiens, UniProt P35222)"
measurement = 6


* * *

- assay: Solubility in PBS
- Format: physicochemical
experimental.endpoint: Solubility (µM)

[[record]]
compound = "CC(=O)N1CCC[C@]12CC=CCCCC1(CCCC=CCCCOC(=O)N3CC[C@@](C(=O)N[C@@H](Cc4ccsc4)C(=O)N[C@@H](Cc4csc5ccccc45)C(=O)N[C@@H](CCC(N)=O)C(=O)N[C@@H](C)C(N)=O)(C3)NC(=O)[C@H](CC(N)=O)NC(=O)[C@H](Cc3ccccc3)NC(=O)[C@H](C)NC(=O)[C@H](C)NC(=O)[C@H](CC(=O)O)NC(=O)[C@H](CC(=O)O)NC1=O)NC(=O)[C@H](CC(C)(C)C)NC(=O)[C@H](CC(=O)O)NC2=O (stereo partly shown) [I-819]"
experimental_endpoint = "Solubility"
measurement = 50

[[record]]
compound = "CC(=O)N1CCC[C@]12CC=CCCCC1(CCCC=CCCCCCC[C@@](C)(C(=O)N[C@@H](Cc3ccsc3)C(=O)N[C@@H](Cc3csc4ccccc34)C(=O)N[C@@H](Cc3c[nH]cn3)C(N)=O)NC(=O)[C@H](CC(N)=O)NC(=O)[C@H](Cc3ccccc3)NC(=O)[C@H](C)NC(=O)[C@H](C)NC(=O)[C@H](CN(CC(=O)O)CC(F)(F)F)NC(=O)[C@H](CC(=O)O)NC1=O)NC(=O)[C@H](CC1CCCCC1)NC(=O)[C@H](CC(=O)O)NC2=O (stereo partly shown) [I-709]"
experimental_endpoint = "Solubility"
measurement = 10

[[record]]
compound = "CC[C@H](C)[C@@H]1NC(=O)[C@H](CC(=O)O)NC(=O)[C@]2(CC=CCCCC3(CCCC=CCCCCCC[C@@](C)(C(=O)N[C@@H](Cc4ccsc4)C(=O)N[C@@H](Cc4csc5ccccc45)C(=O)N[C@@H](CCC(N)=O)C(N)=O)NC(=O)[C@H](CC(N)=O)NC(=O)[C@H](Cc4ccccc4)NC(=O)[C@H](C)NC(=O)[C@H](C)NC(=O)[C@H](CCC(=O)O)NC(=O)[C@H](CC(=O)O)NC3=O)NC1=O)CCCN2C(C)=O (stereo partly shown) [I-520]"
experimental_endpoint = "Solubility"
measurement = 50

[[record]]
compound = "CC(=O)N1CCC[C@]12CC=CCCCC1(CCCC=CCCCOC(=O)N3CC[C@@](C(=O)N[C@@H](Cc4ccsc4)C(=O)N[C@@H](Cc4csc5ccccc45)C(=O)N[C@@H](CCC(N)=O)C(N)=O)(C3)NC(=O)[C@H](CC(N)=O)NC(=O)[C@H](Cc3ccccc3)NC(=O)[C@H](C)NC(=O)[C@H](C)NC(=O)[C@H](CCC(=O)O)NC(=O)[C@H](CC(=O)O)NC1=O)NC(=O)[C@H](CC(C)(C)C)NC(=O)[C@H](CC(=O)O)NC2=O (stereo partly shown) [I-691]"
experimental_endpoint = "Solubility"
measurement = 45

[[record]]
compound = "CC[C@H](C)[C@@H]1NC(=O)[C@H](CC(=O)O)NC(=O)[C@]2(CC=CCCCC3(CCCC=CCCCCCC[C@@](C)(C(=O)N[C@@H](Cc4ccccc4)C(=O)N[C@@H](Cc4csc5ccccc45)C(=O)N[C@@H](CCC(N)=O)C(N)=O)NC(=O)[C@H](CCC(N)=O)NC(=O)[C@H](Cc4ccccc4)NC(=O)[C@H](CC(C)C)NC(=O)[C@H](C)NC(=O)[C@H](CCC(=O)O)NC(=O)[C@H](CC(=O)O)NC3=O)NC1=O)CCCN2C(C)=O (stereo partly shown) [I-658]"
experimental_endpoint = "Solubility"
measurement = 48

[[record]]
compound = "CC(=O)N1CCC[C@]12CC=CCCCC1(CCCC=CCCCCCC[C@@](C)(C(=O)N[C@@H](Cc3ccccc3)C(=O)N[C@@H](Cc3csc4ccccc34)C(=O)N[C@H](CC(N)=O)C(N)=O)NC(=O)[C@H](CC(N)=O)NC(=O)[C@H](Cc3ccccc3)NC(=O)[C@H](C)NC(=O)[C@H](C)NC(=O)[C@H](CCC(=O)O)NC(=O)[C@H](CC(=O)O)NC1=O)NC(=O)[C@H](CC(C)C)NC(=O)[C@H](CC(=O)O)NC2=O (stereo partly shown) [I-758]"
experimental_endpoint = "Solubility"
measurement = 47

[[record]]
compound = "CC(=O)N1CCC[C@]12CC=CCCCC1(CCCC=CCCCOC(=O)N3CC[C@@](C(=O)N[C@@H](Cc4ccccc4Cl)C(=O)N[C@@H](Cc4csc5ccccc45)C(=O)N[C@H](C(N)=O)[C@@H](C)O)(C3)NC(=O)[C@H](CC(C)C)NC(=O)[C@H](Cc3ccccc3)NC(=O)[C@H](C)NC(=O)[C@H](C)NC(=O)[C@H](CCC(=O)O)NC(=O)[C@H](CC(=O)O)NC1=O)NC(=O)[C@H](CC(C)(C)C)NC(=O)[C@H](CC(=O)O)NC2=O (stereo partly shown) [I-1071]"
experimental_endpoint = "Solubility"
measurement = 33

[[record]]
compound = "CC[C@H](C)[C@@H]1NC(=O)[C@H](CC(=O)O)NC(=O)[C@]2(CC=CCCCC3(CCCC=CCCCCCC[C@@](C)(C(=O)N[C@@H](Cc4ccccc4)C(=O)N[C@@H](Cc4csc5ccccc45)C(=O)N[C@@H](CCC(N)=O)C(N)=O)NC(=O)[C@H](CCC(N)=O)NC(=O)[C@H](Cc4ccccc4)NC(=O)[C@H](C)NC(=O)[C@H](C)NC(=O)[C@H](CCC(=O)O)NC(=O)[C@H](CC(=O)O)NC3=O)NC1=O)CCCN2C(C)=O (stereo partly shown) [I-407]"
experimental_endpoint = "Solubility"
measurement = 50

[[record]]
compound = "CC[C@@H]1NC(=O)[C@H](CC(=O)O)NC(=O)[C@]2(CC=CCCCC3(CCCC=CCCCCCC[C@@](C)(C(=O)N[C@@H](Cc4ccccc4)C(=O)N[C@@H](Cc4csc5ccccc45)C(=O)N[C@@H](CCC(N)=O)C(N)=O)NC(=O)[C@H](CC(N)=O)NC(=O)[C@H](Cc4ccccc4)NC(=O)[C@H](C)NC(=O)[C@H](C)NC(=O)[C@H](CC(=O)O)NC(=O)[C@H](CC(=O)O)NC3=O)NC1=O)CCCN2C(C)=O (stereo partly shown) [I-573]"
experimental_endpoint = "Solubility"
measurement = 49

[[record]]
compound = "CC(=O)N1CCC[C@]12CC=CCCCC1(CCCC=CCCCCCC[C@@](C)(C(=O)N[C@@H](Cc3ccccc3)C(=O)N[C@@H](Cc3csc4ccccc34)C(=O)N[C@@H](CCC(N)=O)C(N)=O)NC(=O)[C@H](CC(N)=O)NC(=O)[C@H](Cc3cccs3)NC(=O)[C@H](C)NC(=O)[C@H](C)NC(=O)[C@H](CCC(=O)O)NC(=O)[C@H](CC(=O)O)NC1=O)NC(=O)[C@H](C)NC(=O)[C@H](CC(=O)O)NC2=O (stereo partly shown) [I-446]"
experimental_endpoint = "Solubility"
measurement = 44

